Tested on: CD8+ T cells
Assay: ELISPOTs detection of IFN-gamma secretion by peptide-specific CD8+ T cells
Type: cell-based, human
Details: ELISPOTs
Excerpt: In this example, a ELISPOTs detection kit (Cat. No.: 3420-4AST-10, MABTECH) was used to verify the activation of an immune response of CD8+ T cells by the peptides of the present invention. Principle of the ELISPOTs detection method is as follows: CD8+ T cells can specifically recognize the complex of HLA-A0201 and a peptide. The population of T cells recognizing the complex of the peptide and HLA-A0201 is varying, depending on the peptide sequence. […]
assay_endpoint: Conclusion (immunogenicity)

Here are 4 sequences together with their reported answers.
[[record]]
input_sequence = "FLVDGFWSV"
experimental_result = "immunogenic"

[[record]]
input_sequence = "FMVDGFWSL"
experimental_result = "immunogenic"

[[record]]
input_sequence = "FMVDGFWSV"
experimental_result = "immunogenic"

[[record]]
input_sequence = "FLVDGFWSI"
experimental_result = "immunogenic"


Ask: Lookup: Conclusion (immunogenicity) / CD8+ T cells / FLVDGFWSL
Result: immunogenic
